molecular target: mouse 11β-HSD1 (Mus musculus); test: scintillation proximity assay (SPA), microsomes of HEK-293 cells transfected with mouse 11β-HSD1; settings: read-out: Inhibitory ratio m-HSD1, at 1.0 μM; averages of three determinations
Sequence (P50172 whole entry): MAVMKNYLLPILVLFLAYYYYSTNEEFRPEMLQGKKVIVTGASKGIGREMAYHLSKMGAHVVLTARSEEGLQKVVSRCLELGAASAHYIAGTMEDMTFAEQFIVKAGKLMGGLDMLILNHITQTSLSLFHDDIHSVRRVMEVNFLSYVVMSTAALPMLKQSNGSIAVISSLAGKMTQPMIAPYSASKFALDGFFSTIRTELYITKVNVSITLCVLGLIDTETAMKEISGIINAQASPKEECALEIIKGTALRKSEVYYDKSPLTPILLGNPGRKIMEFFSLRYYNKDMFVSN
quantity_measured: inhibition at 1 µM (%)

Would you please look over these solved cases?
Cc1coc2c1C(=O)C(=O)c1ccccc1-2    89.9
C[C@@H](CO)C1=C(N)c2ccc3c(c2C(=O)C1=O)CCCC3(C)C    85.1
CC1(C)CCCc2c1ccc1c2C(=O)C(=O)c2c-1oc(Cl)c2CO    70.1
Cc1coc2c1C(=O)C(=O)c1c-2ccc2c1C[C@@H](O)CC2(C)C    86.7
CC1(C)C(=O)C=Cc2c1ccc1c2C(=O)C(=O)c2c(CO)coc2-1    90.8
CC(=O)OC1CCc2c(ccc3c2C(=O)C(=O)c2c(CO)coc2-3)C1(C)C (stereo not drawn)    83.6

(a) Cc1coc2c1C(=O)C(=O)c1c-2ccc2c1CCCC2(C)C
(b) Cc1c(CN2CCN(C)CC2)oc2c1C(=O)C(=O)c1c-2ccc2c1CCCC2(C)C [Compound 29d]
(c) CC(=O)Oc1c2c(c3ccc4c(c3c1OC(C)=O)CCCC4(C)C)OC[C@@H]2C
List the 3 entries from lowest inhibition at 1 µM to highest inhibition at 1 µM value. // respond by listing labels in the order requested
c, b, a

###

The following compounds are shown together with reported Mouse SI (selectivity index) values.
target: UniProtKB P50172; experiment: scintillation proximity assay (SPA), microsomes of HEK-293 cells transfected with mouse 11β-HSD1; settings: Table 3; SI = IC50(HSD2)/IC50(HSD1), mouse

Cc1c(CO)oc2c1C(=O)C(=O)c1c-2ccc2c1CCCC2(C)C [Compound 28b]    > 1426.5
Cc1coc2c1C(=O)C(=O)c1c-2ccc2c1[C@H](O)[C@@H](O)CC2(C)C (racemic) [Compound 18a]    > 724.1
Cc1c(CN2CCN(C)CC2)oc2c1C(=O)C(=O)c1c-2ccc2c1CCCC2(C)C [Compound 29d]    > 367.2
CC1(C)CCCc2c1ccc1c2C(=O)C(=O)c2c-1oc(Cl)c2CO    > 30.5
CC1(C)CCCc2c1ccc1c2C(=O)C(=O)c2c(CNc3ccccc3)coc2-1 [Compound 31a]    > 176.4
Cc1coc2c1C(=O)C(=O)c1c-2ccc2c1CCC(O)C2(C)C (stereo not drawn)    > 1371.7
Cc1c(CN2CCCCC2)oc2c1C(=O)C(=O)c1c-2ccc2c1CCCC2(C)C [Compound 29b]    > 1526.7
Cc1coc2c1C(=O)C(=O)c1ccccc1-2    > 150.3
Cc1c(CN(C)C)oc2c1C(=O)C(=O)c1c-2ccc2c1CCCC2(C)C [Compound 29a]    > 5813.9
Cc1coc2c1C(=O)C(=O)c1c-2ccc2c1CCCC2(C)C    > 31,055.9

// query Mouse SI (selectivity index) value for entry "Cc1coc2c1C(=O)C(=O)c1c-2ccc2c1C(=O)C(O)=CC2(C)C"
> 103.6

Now give it for CC(=O)OC1CCc2c(ccc3c2C(=O)C(=O)c2c(CO)coc2-3)C1(C)C (stereo not drawn) too.
> 4575.5

Now give it for "Cc1coc2c1C(=O)C(=O)c1c-2ccc2c1C=CCC2(C)C" too.
> 1689.2

Now give it for "CC1(C)C(=O)C=Cc2c1ccc1c2C(=O)C(=O)c2c(CO)coc2-1" too.
> 1488.1
